Readings of 50 nM Ag Bound for the listed binders
Target: T1, Human IL2Rγ extracellular domain expressed with a C-terminal mouse IgG2a Fc tag (human)
T1 construct: whole entry is the Fc-fused construct; also called hIL-2Rg-mFc
T1 chain: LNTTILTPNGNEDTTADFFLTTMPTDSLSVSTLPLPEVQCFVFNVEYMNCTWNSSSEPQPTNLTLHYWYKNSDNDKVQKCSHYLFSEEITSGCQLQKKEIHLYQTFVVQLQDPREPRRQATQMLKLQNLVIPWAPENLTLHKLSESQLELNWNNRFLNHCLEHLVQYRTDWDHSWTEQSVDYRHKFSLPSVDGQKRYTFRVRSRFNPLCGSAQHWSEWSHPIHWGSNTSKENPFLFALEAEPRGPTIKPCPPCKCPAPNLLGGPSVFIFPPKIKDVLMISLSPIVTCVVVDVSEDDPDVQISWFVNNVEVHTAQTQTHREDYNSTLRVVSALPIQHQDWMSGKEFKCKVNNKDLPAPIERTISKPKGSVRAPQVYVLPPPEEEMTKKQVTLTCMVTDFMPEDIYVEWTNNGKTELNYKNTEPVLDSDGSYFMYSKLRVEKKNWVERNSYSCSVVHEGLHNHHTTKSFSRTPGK
Test: SPR Biacore 4000, anti-hFc-captured mAb, 25 C
Write the answer as a number in RU, unit excluded.

Examples with answers:
H4H12863P (antibody, human IgG4 S228P, kappa, V domains shown, fully human anti-IL2Rgamma mAb, human IgG4 Fc) VH: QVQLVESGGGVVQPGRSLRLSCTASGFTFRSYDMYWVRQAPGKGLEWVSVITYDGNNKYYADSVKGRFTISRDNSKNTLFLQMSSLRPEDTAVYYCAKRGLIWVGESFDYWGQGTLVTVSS VL: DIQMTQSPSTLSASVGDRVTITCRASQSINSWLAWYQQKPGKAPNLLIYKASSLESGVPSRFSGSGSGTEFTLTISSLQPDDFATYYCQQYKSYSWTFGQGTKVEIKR    115
H4H13538P (antibody, human IgG4 S228P, kappa, V domains shown, fully human anti-IL2Rgamma mAb, human IgG4 Fc) VH: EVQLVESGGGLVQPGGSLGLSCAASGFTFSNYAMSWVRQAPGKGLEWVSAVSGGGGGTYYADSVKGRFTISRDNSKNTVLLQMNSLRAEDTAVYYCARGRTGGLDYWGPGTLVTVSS VL: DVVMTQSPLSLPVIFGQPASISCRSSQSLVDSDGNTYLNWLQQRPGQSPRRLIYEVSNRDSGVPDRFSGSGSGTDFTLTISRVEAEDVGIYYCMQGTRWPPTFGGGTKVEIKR    38
H4H12858P (antibody, human IgG4 S228P, kappa, V domains shown, fully human anti-IL2Rgamma mAb, human IgG4 Fc; also called REGN9433) VH: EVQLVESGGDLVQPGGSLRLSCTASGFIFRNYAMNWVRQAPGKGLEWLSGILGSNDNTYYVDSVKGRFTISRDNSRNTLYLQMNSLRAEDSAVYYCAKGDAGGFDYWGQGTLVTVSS VL: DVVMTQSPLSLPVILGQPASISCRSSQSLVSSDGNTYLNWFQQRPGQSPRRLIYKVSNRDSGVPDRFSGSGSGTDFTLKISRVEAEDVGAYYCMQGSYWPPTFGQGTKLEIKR    46
H4H12874P (antibody, human IgG4 S228P, kappa, V domains shown, fully human anti-IL2Rgamma mAb, human IgG4 Fc) VH: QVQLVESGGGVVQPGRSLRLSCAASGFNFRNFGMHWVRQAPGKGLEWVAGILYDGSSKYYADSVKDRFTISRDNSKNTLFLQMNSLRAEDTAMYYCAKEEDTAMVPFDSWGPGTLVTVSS VL: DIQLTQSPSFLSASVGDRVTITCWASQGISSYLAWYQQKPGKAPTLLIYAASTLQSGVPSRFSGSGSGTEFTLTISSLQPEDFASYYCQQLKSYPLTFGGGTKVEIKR    15

Q: Given H4H13541P (antibody, human IgG4 S228P, kappa, V domains shown, fully human anti-IL2Rgamma mAb, human IgG4 Fc) VH: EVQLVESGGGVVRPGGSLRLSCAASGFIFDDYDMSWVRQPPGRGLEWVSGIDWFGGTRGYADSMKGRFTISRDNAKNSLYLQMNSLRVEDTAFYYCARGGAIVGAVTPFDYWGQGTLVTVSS VL: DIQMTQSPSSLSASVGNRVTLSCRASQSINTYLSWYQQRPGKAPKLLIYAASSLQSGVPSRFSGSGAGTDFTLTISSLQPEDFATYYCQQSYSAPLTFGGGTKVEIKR , respond with its 50 nM Ag Bound.
A: 24

Q: Please list 50 nM Ag Bound recorded for the binder H4H12886P (antibody, human IgG4 S228P, kappa, V domains shown, fully human anti-IL2Rgamma mAb, human IgG4 Fc) VH: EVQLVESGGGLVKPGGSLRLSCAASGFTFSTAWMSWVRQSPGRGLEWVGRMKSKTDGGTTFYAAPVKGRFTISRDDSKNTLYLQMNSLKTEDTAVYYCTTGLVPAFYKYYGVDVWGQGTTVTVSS VL: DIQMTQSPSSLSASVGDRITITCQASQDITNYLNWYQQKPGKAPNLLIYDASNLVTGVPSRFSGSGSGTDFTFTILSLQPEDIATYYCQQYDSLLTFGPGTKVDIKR
A: 23
